Target: T1, recombinant human MASP1 active protease (amino acids 297-699, C-terminal His Tag) (human, UniProt P48740 297-699)
T1 sequence: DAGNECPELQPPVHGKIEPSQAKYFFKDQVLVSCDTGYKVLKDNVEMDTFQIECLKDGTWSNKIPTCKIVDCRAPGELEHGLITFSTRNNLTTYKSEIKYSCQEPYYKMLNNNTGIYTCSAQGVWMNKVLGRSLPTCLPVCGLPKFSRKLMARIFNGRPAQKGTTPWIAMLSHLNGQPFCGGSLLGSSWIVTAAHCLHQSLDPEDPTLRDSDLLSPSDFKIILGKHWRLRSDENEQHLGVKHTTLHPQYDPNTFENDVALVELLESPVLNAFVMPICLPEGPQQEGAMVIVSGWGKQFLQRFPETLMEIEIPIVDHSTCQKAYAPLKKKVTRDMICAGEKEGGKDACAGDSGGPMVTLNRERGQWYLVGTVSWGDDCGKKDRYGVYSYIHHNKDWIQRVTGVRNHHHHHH
Experiment: cell-based or functional assay
Bridge positions count the residues as written; N and C are the ends. Square brackets hold non-standard residues; d marks the D form. Ends that are not written are not given here. tBuAla = CC(C)(C)C[C@H](N)C(=O)O; Pen = CC(C)(S)[C@H](N)C(=O)O; Sar = CNCC(=O)O
property_measured: human MASP1 IC50 (nM)
Answers are plain numbers, in nM.

In: For the binder [Sar]ICSRS[tBuAla]PPI[Pen]IPD[Sar][Sar][Sar]-NH2 (disulfide 3-11; N-terminus assumed; SMILES CC[C@H](C)[C@H](NC(=O)CNC)C(=O)N[C@H]1CSSC(C)(C)[C@@H](C(=O)N[C@H](C(=O)N2CCC[C@H]2C(=O)N[C@@H](CC(=O)O)C(=O)N(C)CC(=O)N(C)CC(=O)N(C)CC(N)=O)[C@@H](C)CC)NC(=O)[C@H]([C@@H](C)CC)NC(=O)[C@@H]2CCCN2C(=O)[C@@H]2CCCN2C(=O)[C@H](CC(C)(C)C)NC(=O)[C@H](CO)NC(=O)[C@H](CCCNC(=N)N)NC(=O)[C@H](CO)NC1=O) [Example 433: ((N-Me)G)-IC+SRS-((tBu)A)-PPI-(Pen)+IPD-((N-Me)G)-((N-Me)G)-((N-Me)G)-NH2] , what human MASP1 IC50 is on record?
Out: 1.7
